Listed compounds paired with reported EC50
- testSystem: M1 muscarinic receptor (Homo sapiens)
- Sequence (P11229 whole entry): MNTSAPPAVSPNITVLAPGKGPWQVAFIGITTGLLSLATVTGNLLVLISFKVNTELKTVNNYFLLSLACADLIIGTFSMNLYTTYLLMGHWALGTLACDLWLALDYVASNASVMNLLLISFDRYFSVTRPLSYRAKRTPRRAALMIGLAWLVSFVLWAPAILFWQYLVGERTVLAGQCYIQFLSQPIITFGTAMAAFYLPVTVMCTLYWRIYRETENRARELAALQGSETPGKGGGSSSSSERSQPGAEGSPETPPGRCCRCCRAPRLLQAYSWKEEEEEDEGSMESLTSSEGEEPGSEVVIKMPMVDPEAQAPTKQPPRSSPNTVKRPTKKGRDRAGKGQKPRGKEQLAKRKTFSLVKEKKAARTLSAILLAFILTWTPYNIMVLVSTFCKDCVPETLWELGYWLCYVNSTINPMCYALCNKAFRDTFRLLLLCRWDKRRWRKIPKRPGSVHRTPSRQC
- assayExplanation: Functional mobilization of intracellular calcium (FLIPR), M1-CHO cells
- setupConditions: CHO cells expressing M1, calcium mobilization

Known results for compounds:
CCOC(=O)N1CCC(N2CCC3(CC2)C[C@H]2CC(=O)N(CCOC)[C@H]2c2ccccc23)CC1 :: < 2000 nM
O=C1C[C@@H]2CC3(CCN(C4CCCCC4)CC3)c3ccccc3[C@@H]2N1 [Compound 19] :: < 2000 nM

Quick check: EC50 of c1ccc2c(c1)C1OCCC1CC21CCN(CC2CCCCC2)CC1 (stereo not drawn) ?
> 5000 nM
